Data origin, for the record: patent US20170210813A1

- measured target: T1, hPDGFRb.mmh (human, UniProt P09619 33-531)
- T1 construct: Soluble monomeric construct; also called soluble human PDGFR-beta.mmh
- T1 sequence (P09619 other isoform, or with tags, fused parts or gaps): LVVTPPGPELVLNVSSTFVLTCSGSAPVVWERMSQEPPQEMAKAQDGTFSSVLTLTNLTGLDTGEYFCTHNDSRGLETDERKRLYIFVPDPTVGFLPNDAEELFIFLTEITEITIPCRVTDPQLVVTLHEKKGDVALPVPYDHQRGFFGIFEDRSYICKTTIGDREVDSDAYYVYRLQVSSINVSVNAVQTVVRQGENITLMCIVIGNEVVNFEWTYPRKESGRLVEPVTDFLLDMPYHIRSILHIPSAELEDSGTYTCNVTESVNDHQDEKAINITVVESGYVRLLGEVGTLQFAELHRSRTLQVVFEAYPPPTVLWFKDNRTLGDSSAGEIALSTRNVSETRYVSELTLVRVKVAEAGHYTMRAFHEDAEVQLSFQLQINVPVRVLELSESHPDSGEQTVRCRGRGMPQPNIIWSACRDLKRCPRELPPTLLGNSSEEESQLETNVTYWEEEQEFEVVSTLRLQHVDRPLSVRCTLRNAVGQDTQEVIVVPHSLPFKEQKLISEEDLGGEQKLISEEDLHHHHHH
- experiment description: SPR, mAb captured, 37 C
- Procedure: Antibodies, expressed as either mouse Fc (prefix H1M; H2M) or human Fc (prefix H4H), were captured on their respective anti-Fc sensor surfaces (Mab capture format). […] Kinetic association (kₐ) and dissociation (kd) rate constants were determined by processing and fitting the data to a 1:1 binding model using Scrubber 2.0 curve fitting software.
The entries below are paired with their reported pKd.
Reminder that pKd is minus the log10 of a molar concentration.

Here is how some binders turned out for pKd.
H4H3106S (antibody, human IgG4, V domains shown, human IgG4 Fc (H4H prefix)) VH: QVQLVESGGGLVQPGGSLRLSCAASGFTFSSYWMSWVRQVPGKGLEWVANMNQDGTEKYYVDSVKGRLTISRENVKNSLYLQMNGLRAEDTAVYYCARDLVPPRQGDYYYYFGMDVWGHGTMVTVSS VL: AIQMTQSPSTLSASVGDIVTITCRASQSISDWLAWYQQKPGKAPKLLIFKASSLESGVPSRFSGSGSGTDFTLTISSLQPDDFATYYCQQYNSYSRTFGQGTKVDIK = 8.07
H4H3103S (antibody, human IgG4, V domains shown, human IgG4 Fc (H4H prefix)) VH: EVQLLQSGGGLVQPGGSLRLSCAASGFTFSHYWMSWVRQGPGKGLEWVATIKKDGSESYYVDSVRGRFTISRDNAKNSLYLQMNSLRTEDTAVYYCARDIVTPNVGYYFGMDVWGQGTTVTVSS VL: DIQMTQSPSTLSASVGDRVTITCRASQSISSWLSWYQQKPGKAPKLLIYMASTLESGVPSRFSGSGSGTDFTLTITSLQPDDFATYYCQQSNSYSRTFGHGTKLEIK = 8.00

// below: pKd requested for another binder
Input: Consider the binder shown here: H4H3096S (antibody, human IgG4, V domains shown, human IgG4 Fc (H4H prefix)) VH: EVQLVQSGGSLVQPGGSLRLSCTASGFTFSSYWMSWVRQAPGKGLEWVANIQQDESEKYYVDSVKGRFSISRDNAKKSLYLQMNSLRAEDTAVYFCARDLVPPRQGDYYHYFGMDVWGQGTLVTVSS VL: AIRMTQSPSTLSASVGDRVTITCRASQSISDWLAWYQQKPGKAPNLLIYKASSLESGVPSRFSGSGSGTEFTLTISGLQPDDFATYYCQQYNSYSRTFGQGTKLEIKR What is its recorded pKd?
Output: 7.86
